Target: T1, wt-ERβ LBD (wild-type estrogen receptor β ligand-binding domain, amino acids 261–502) (human, UniProt Q92731 261-502)
T1 construct: also called wild-type ERβ LBD; apo-ERβ
T1 sequence (Q92731 261-502): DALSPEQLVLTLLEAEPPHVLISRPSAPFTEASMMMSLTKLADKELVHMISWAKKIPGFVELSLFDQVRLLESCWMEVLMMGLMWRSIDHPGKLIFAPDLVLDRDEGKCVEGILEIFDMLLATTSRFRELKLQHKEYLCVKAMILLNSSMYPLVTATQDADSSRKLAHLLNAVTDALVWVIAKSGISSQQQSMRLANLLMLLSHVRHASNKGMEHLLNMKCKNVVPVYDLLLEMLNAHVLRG
Experiment: fluorescence polarisation; fluorescence anisotropy as a1, with α-ZA at 2 molar equivalents of the highest protein concentration
Conditions: both partners purified
pKd: −log10 of the molar value. Primed or numbered codes have the meaning given here. Where no end group is shown, it is not given here. fluorescein″ = fluorescein label on the peptide (N-terminal, fluorescein-labeled peptide)

{"binder": "{fluorescein″}-RHKILHRLLQEGS (also called fluorescein-labeled SRC-1 NR2 peptide; SRC-1 NR2 peptide; source: synthetic peptide, bought: EZbiolab) [fluorescein-RHKILHRLLQEGS peptide corresponding to the NR box 2-binding motif of SRC-1]", "pKd": "≤ 6.00"}
